// reported IC50 for each item listed
- Tested on: Hut78 T-Lymphocytic Leukemia cells
- assay.explanation: Tumor cell IC50, CCK-8 kit, Hut78
- Type: cell-based
- applied.conditions: Homo sapiens, Hut-78 cells
Write it as a number; the unit µg/mL goes unstated.

Consider the worked cases shown below.
smiles_repr=COCCOc1cc2c(cc1OCCOC)C1=Nc3cccc(NC(C)=O)c3CN1C=N2 test_readout=IC50 readout_value=26.8
smiles_repr=CS(=O)(=O)CCNCc1ccc(-c2ccc3c(c2)C2=Nc4ccc(OCc5cccc(F)c5)c(Cl)c4CN2C=N3)o1 test_readout=IC50 readout_value=13.4
smiles_repr=COCCOc1cc2c(cc1OCCOC)C1=Nc3cccc(O)c3CN1C=N2 test_readout=IC50 readout_value=53.1

// next entry
What measured IC50 goes with `COCCOc1cc2c(cc1OCCOC)C1=Nc3cc(Cl)ccc3CN1C=N2` ?
14.3

###

- assay.target: EGFR tyrosine kinase (Homo sapiens, UniProt P00533)
- Sequence (P00533 25-1210): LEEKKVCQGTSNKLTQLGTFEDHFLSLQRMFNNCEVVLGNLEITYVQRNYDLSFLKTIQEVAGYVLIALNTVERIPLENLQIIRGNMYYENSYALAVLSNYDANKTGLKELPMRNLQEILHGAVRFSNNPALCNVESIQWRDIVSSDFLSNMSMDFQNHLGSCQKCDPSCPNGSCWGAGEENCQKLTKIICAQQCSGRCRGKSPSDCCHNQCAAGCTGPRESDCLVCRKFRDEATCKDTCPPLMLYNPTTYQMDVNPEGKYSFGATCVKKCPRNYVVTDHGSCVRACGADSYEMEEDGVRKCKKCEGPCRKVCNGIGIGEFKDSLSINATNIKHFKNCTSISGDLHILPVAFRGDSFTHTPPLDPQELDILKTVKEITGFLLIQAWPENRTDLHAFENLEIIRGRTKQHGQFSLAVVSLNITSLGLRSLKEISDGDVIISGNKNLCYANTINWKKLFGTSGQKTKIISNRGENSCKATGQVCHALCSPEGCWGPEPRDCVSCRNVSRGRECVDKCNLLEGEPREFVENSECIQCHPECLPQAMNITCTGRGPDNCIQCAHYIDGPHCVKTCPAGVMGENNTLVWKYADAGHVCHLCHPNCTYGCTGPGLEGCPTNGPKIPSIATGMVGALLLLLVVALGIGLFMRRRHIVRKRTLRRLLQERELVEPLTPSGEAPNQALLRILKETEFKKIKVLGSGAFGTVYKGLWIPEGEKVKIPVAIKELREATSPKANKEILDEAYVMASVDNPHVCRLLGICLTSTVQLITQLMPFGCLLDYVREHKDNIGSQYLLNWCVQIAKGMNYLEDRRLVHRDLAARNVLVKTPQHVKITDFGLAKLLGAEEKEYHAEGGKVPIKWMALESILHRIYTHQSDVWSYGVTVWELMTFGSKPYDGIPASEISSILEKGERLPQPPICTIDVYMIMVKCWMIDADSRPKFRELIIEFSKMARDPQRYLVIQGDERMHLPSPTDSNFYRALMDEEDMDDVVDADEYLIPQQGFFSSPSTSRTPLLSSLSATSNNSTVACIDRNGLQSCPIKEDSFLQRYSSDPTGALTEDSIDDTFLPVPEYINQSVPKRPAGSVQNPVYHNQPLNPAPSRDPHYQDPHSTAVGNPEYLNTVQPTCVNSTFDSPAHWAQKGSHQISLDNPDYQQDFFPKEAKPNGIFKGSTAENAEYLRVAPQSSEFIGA
- assay.explanation: EGFR tyrosine kinase inhibition in vitro (Invitrogen EGFR inhibitor screening kit PV3193)
- applied.conditions: 40 μM
Where a name gives a salt, the structure may show the parent alone.
// reported The inhibition ratio of the compound on EGFR(%) for each item listed
Write it as a number; the unit % goes unstated.

Consider the worked cases shown below.
compound=COCCOc1cc2c(cc1OCCOC)C1=Nc3cccc(Cl)c3CN1C=N2.Cl unit_string=% readout_value=57.6
compound=COCCOc1cc2c(cc1OCCOC)C1=Nc3cc(O)ccc3CN1C=N2 unit_string=% readout_value=33.2
compound=COCCOc1cc2c(cc1OCCOC)C1=Nc3cc(F)ccc3CN1C=N2 unit_string=% readout_value=21.7

Enter reported The inhibition ratio of the compound on EGFR(%) observed with EGFR tyrosine kinase (Homo sapiens, UniProt P00533) for `COCCOc1cc2c(cc1OCCOC)C1=Nc3cccc(Br)c3CN1C=N2.Cl`
62.9

Enter reported The inhibition ratio of the compound on EGFR(%) observed with EGFR tyrosine kinase (Homo sapiens, UniProt P00533) for `COCCOc1cc2c(cc1OCCOC)C1=Nc3cc(Cl)ccc3CN1C=N2`
60.7

Enter reported The inhibition ratio of the compound on EGFR(%) observed with EGFR tyrosine kinase (Homo sapiens, UniProt P00533) for `COCCOc1cc2c(cc1OCCOC)C1=Nc3cccc(OC)c3CN1C=N2`
30.8

Enter reported The inhibition ratio of the compound on EGFR(%) observed with EGFR tyrosine kinase (Homo sapiens, UniProt P00533) for `C#Cc1cccc2c1CN1C=Nc3ccc(-c4ccc(CNCCS(C)(=O)=O)o4)cc3C1=N2`
13.3

Enter reported The inhibition ratio of the compound on EGFR(%) observed with EGFR tyrosine kinase (Homo sapiens, UniProt P00533) for `COc1cc2c(cc1OCCCN1CCCC1)C1=Nc3cccc(Cl)c3CN1C=N2`
53.1

Enter reported The inhibition ratio of the compound on EGFR(%) observed with EGFR tyrosine kinase (Homo sapiens, UniProt P00533) for `CS(=O)(=O)CCNCc1ccc(-c2ccc3c(c2)C2=Nc4ccc(F)c(Cl)c4CN2C=N3)o1`
21.6

Enter reported The inhibition ratio of the compound on EGFR(%) observed with EGFR tyrosine kinase (Homo sapiens, UniProt P00533) for COCCOc1cc2c(cc1OCCOC)C1=Nc3cccc(F)c3CN1C=N2 [Compound V-3, mesylate]
49.5

Enter reported The inhibition ratio of the compound on EGFR(%) observed with EGFR tyrosine kinase (Homo sapiens, UniProt P00533) for `COCCOc1cc2c(cc1OCCOC)C1=Nc3ccc(OCc4cccc(F)c4)c(Cl)c3CN1C=N2`
45.2

Enter reported The inhibition ratio of the compound on EGFR(%) observed with EGFR tyrosine kinase (Homo sapiens, UniProt P00533) for `COCCOc1cc2c(cc1OCCOC)C1=Nc3ccc(F)c(Cl)c3CN1C=N2`
45.7

Enter reported The inhibition ratio of the compound on EGFR(%) observed with EGFR tyrosine kinase (Homo sapiens, UniProt P00533) for `COCCOc1cc2c(cc1OCCOC)C1=Nc3cccc(O)c3CN1C=N2`
52.3

Enter reported The inhibition ratio of the compound on EGFR(%) observed with EGFR tyrosine kinase (Homo sapiens, UniProt P00533) for `COCCOc1cc2c(cc1OCCOC)C1=Nc3cccc(C(F)(F)F)c3CN1C=N2`
13.0
